Target: HLA-A*02:01
Assay: IEDB peptide-MHC binding, purified MHC/competitive/fluorescence; filed as Kd, often an IC50 or EC50 that approximates it; bounds were set here for any values at or beyond the usual limits of such assays
Settings: source organism: Vaccinia virus WR 65-16
READOUT_TYPE: Kd (nM)
Answer with a number only, understood to be in nM.

Query string: Specify measured Kd for `NLEKKITNV` .
Result string: 216

====

Below, each of the sequences is paired with its reported pKd value.
Target: HLA-A*30:02
Assay: IEDB peptide-MHC binding, purified MHC/competitive/radioactivity; filed as Kd, often an IC50 or EC50 that approximates it; bounds were set here for any values at or beyond the usual limits of such assays
Details: source organism: SARS coronavirus Tor2
API: returns pKd as number; meaning -log10 of concentration in mol/L.

Query string: Specify measured pKd for `VSIINNAVY` .
Result string: 8.04

Query string: Specify measured pKd for `VMPVHTLSI` .
Result string: 5.34

Query string: Specify measured pKd for `SYREAACCHL` .
Result string: 5.15

Query string: Specify measured pKd for `VYKVYYGNAL` .
Result string: 5.22

Query string: Specify measured pKd for `LDESFLGRY` .
Result string: 6.79

Where these numbers come from: the Immune Epitope Database (IEDB)
